- Test system: TDF
- PROTOCOL SUMMARY: cell number relative to DMSO (% of DMSO); higher = more cells (less growth inhibition / toxicity)
- PARTICULARS: concentration: 10 µM; 24 h
Label MET for high-side cell number (at or above 100) and NOT MET for low-side cell number (below it).

See these solved cases before continuing.
compound=Cc1cccc(Nc2cc(Cl)nc(SCC(=O)O)n2)c1C cat=MET
compound=NC(N)=S cat=MET
compound=CCOc1cc(N2CCC(O)CC2)ccc1Nc1ncc2c(n1)N(C)c1ccccc1C(=O)N2C cat="NOT MET"

State whether the measured cell number reaches 100, counting equality as reaching it, for O=C1[N-]C(=O)C(c2ccccc2)(c2ccccc2)N1.[Na+] [Phenytoin sodium] MET

State whether the measured cell number reaches 100, counting equality as reaching it, for "CN(C)CCOc1ccc(C(=C(CCCl)c2ccccc2)c2ccccc2)cc1" MET

State whether the measured cell number reaches 100, counting equality as reaching it, for "CC(C)C(=O)Nc1ncc(-c2cc(C(F)F)nn2-c2c(Cl)cccc2Cl)s1" NOT MET

====

- Test system: TDF
- PROTOCOL SUMMARY: H1.0 immunofluorescence intensity relative to DMSO (% of DMSO); higher = stronger H1.0 induction, active = 120 or more
- PARTICULARS: concentration: 10 µM; 24 h
One label from this list, please: active, inactive

compound="CC12C=CC(=O)C=C1CCC1C3CC(O)C(O)(C(=O)CO)C3(C)CC(O)C12F (stereo not given) [Triamcinolone]" tested_system=TDF cat=inactive
compound=O=C1c2c(O)cc(O)cc2O[C@H](c2cc(O)c(O)c(O)c2)[C@H]1O tested_system=TDF cat=inactive
compound="CC(C(=O)O)c1cccc(C(=O)c2ccccc2)c1 (stereo not given) [Ketoprofen]" tested_system=TDF cat=inactive

Just curious, what result did "CN(C)CCn1cc(S(=O)(=O)c2cccc(F)c2)c2cccnc21" get here? active

Just curious, what result did "COc1ccc(CC[C@H]2CCC[C@@H](CCc3ccc(OC)cc3)N2C[C@@H](O)CO)cc1.Cl" get here? inactive

====

- Tested on: TDF
- PROTOCOL SUMMARY: cell number relative to DMSO (% of DMSO); higher = more cells (less growth inhibition / toxicity)
- PARTICULARS: concentration: 10 µM; 24 h
MEASUREMENT LABEL: cell number
Give your answer as a number; write no unit.

Worked examples follow.
molecule="CC(CCc1ccccc1)NCC(O)c1ccc(O)c(C(N)=O)c1.Cl (stereo not drawn) [Labetalol hydrochloride]" tested_system=TDF readout_value=106
molecule="CC1COC2=C1C(=O)C(=O)c1c2ccc2c1CCCC2(C)C (stereo not drawn) [Cryptotanshinone]" tested_system=TDF readout_value=64.9

Short answer for CC(=O)C1=C(O)C=C2Oc3c(C(C)=O)c(O)c(C)c(O)c3C2(C)C1=O (single isomer, unassigned; (+)) [(+)-Usnic acid] : cell number was 109

Short answer for O=c1cc(N2CCOCC2)oc2c1ccc1ccccc12 [DNA-PK Inhibitor II] : cell number was 97.4

Short answer for CN(Cc1cc(Br)cc(Br)c1N)C1CCCCC1 [Bromhexine] : cell number was 110

Short answer for COC12C(COC(N)=O)C3=C(C(=O)C(C)=C(N)C3=O)N1CC1NC12 (stereo not drawn) [Mitomycin C] : cell number was 47.6

Short answer for CC1CCC2C(C)(CO)C(O)CCC2(C)C12CCC(CO)(CCO)O2 (stereo not drawn) [Lagochiline] : cell number was 99.8

Short answer for NC(=O)c1cccc(-c2cc(Nc3ccc(OC(F)(F)F)cc3)ncn2)c1 [Bcr-abl Inhibitor] : cell number was 92.8
